These entries and their values trace back to patent US11046647B2.

Test system: MCF-7 cells
Assay info: Alamar Blue/raptinal 24-hour cell death assay, MCF-7
Type: cell-based, human
Assay context: 24-hour incubation, Alamar blue fluorescence, normalized to vehicle and raptinal; listed as (S)-1
Description: FIG. 4. […] MCF7 (ERα) cells, 24 hour incubation, read out via Alamar Blue Fluorescence, Dead Control: Raptinal, n=3 (A, B). […] Orthotopic Mouse Xenograft breast cancers of TYS cells, Visualization by bioluminescent imaging. […] ALAMAR BLUE/RAPTINAL ASSAY: Live cells maintain a reducing environment. […] Using a standard curve of cell number versus fluorescence the number of live cells in a test sample can be determined. […]
Test readout: IC50

Ask: Record O=C1Nc2c(C(F)(F)F)cccc2C1(c1ccc(O)cc1)c1ccc(OC(F)(F)F)cc1 (single isomer, unassigned; (+)) [(+)-105] : what is its IC50 with MCF-7 cells?
Reply: > 1000 nM

====

Tested on: MCF-7 cells
Assay info: Alamar Blue/raptinal 24-hour cell death assay, MCF-7
Type: cell-based, human
Assay context: Homo sapiens, MCF7, 24 h, 24-hour incubation, Alamar blue fluorescence
pIC50: −log10 of the molar value.
Test readout: pIC50

Ask: # get_value(readout='pIC50', item= O=C1Nc2c(C(F)(F)F)cccc2C1(c1ccc(O)cc1)c1ccc(OC(F)(F)F)cc1 (single isomer, unassigned; (+)) [(+)-105] )
Reply: < 6.00
